# ASSAY TARGET: AChE (EC 3.1.1.7, Electrophorus electricus, Type: V-S) (Electrophorus electricus, UniProt O42275)
# Sequence (O42275 24-633): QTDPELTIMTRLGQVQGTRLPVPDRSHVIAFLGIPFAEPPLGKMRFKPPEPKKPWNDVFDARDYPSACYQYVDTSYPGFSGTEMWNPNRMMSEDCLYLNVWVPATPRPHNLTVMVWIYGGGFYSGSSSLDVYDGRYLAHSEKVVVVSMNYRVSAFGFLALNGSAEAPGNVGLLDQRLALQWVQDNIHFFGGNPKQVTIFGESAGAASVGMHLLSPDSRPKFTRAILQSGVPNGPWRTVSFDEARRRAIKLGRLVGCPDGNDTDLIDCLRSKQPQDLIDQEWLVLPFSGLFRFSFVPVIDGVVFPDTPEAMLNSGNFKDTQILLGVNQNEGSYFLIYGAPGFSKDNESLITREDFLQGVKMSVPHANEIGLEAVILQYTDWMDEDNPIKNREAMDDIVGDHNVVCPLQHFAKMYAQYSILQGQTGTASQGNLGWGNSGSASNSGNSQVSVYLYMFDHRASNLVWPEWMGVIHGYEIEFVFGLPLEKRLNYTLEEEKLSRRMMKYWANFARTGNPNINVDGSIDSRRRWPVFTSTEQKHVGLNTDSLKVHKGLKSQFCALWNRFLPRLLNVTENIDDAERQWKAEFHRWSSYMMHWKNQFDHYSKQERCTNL
# PROCEDURE TEXT: AChE inhibition, modified spectrophotometric Ellman's method
ENDPOINT: pIC50
Entry type: numeric. Quantity: pIC50, the -log10 of concentration in molar units.

Q: Request the reported pIC50 associated with O=[N+]([O-])c1ccc2ccc3ncoc3c2c1 [Compound 16]
A: 3.88

* * *

# ASSAY TARGET: BChE (EC 3.1.1.8, equine serum) (Equus caballus)
# Construct: BChE (EC 3.1.1.8, equine serum); purchased Sigma-Aldrich; host or cells: equine serum
# PROCEDURE TEXT: biochemical
# Assay type: biochemical
# ASSAY SETUP: read-out: Inhibition (%) BChE
ENDPOINT: inhibition at 250 µM
Form field: result (number plus unit)

Take a look at these entries with their results.
- MOLECULE: "CC(=O)Nc1ncc(C=Cc2cccs2)s1 (mixture of isomers) [Compound 5a]"
  inhibition at 250 µM: "30.6%"
- MOLECULE: "CC(=O)Nc1nc2c(ccc3sccc32)s1 [Compound 5]"
  inhibition at 250 µM: "24.9%"
- MOLECULE: "Clc1ncc(/C=C/c2cccs2)s1 [trans-3a]"
  inhibition at 250 µM: "10%"

// next item, inhibition at 250 µM requested
Q: Request the reported inhibition at 250 µM associated with Clc1nc2c(ccc3sccc32)s1 [Compound 3]
A: 75.4%

* * *

# key: entry, value: IC50
# ASSAY TARGET: BChE (EC 3.1.1.8, equine serum) (Equus caballus, UniProt P81908)
# Construct: BChE (EC 3.1.1.8, equine serum); purchased Sigma-Aldrich; host or cells: equine serum
# Sequence (P81908 whole entry): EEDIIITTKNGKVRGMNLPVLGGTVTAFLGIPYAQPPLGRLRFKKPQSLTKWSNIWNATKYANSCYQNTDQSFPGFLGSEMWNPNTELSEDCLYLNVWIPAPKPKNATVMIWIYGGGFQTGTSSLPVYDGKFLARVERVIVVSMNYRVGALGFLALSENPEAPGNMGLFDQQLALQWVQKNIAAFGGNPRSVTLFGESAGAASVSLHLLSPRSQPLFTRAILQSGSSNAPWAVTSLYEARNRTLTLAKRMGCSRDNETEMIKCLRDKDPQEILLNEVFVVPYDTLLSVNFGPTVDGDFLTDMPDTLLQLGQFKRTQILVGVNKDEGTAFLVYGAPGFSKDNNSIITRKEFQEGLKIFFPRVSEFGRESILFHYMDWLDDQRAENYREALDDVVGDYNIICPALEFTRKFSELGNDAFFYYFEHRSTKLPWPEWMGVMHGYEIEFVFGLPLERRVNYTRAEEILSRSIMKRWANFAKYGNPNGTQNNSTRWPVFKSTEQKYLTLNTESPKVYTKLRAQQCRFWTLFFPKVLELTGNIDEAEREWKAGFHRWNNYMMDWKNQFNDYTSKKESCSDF
# PROCEDURE TEXT: biochemical
# Assay type: biochemical

Take a look at these entries with their results.
- STRUCTURE SMILES STRING: "Clc1nc2c(ccc3sccc32)s1"
  ASSAY TARGET: "BChE (EC 3.1.1.8, equine serum) (Equus caballus, UniProt P81908)"
  IC50: "51.1 µM"
- STRUCTURE SMILES STRING: "FC(F)(F)c1nc2c(ccc3sccc32)s1"
  ASSAY TARGET: "BChE (EC 3.1.1.8, equine serum) (Equus caballus, UniProt P81908)"
  IC50: "41.9 µM"
- STRUCTURE SMILES STRING: "Cc1ccc2ccc3ncoc3c2c1"
  ASSAY TARGET: "BChE (EC 3.1.1.8, equine serum) (Equus caballus, UniProt P81908)"
  IC50: "155 µM"

// next item, IC50 requested
Q: Notebook: pull reported IC50 for BChE (EC 3.1.1.8, equine serum) (Equus caballus, UniProt P81908), entry "Cc1cccc2c1ccc1ncoc12"
A: 351 µM

* * *

# ASSAY TARGET: BChE (EC 3.1.1.8, equine serum) (Equus caballus, UniProt P81908)
# Construct: BChE (EC 3.1.1.8, equine serum); purchased Sigma-Aldrich; host or cells: equine serum
# PROCEDURE TEXT: biochemical
# Assay type: biochemical
For each record, check the reported IC50: if it is below 100 µM write yes (1), else write no (0).

- STRUCTURE SMILES STRING: "COc1ccc2ccc3nc(C)oc3c2c1"
  ASSAY TARGET: "BChE (EC 3.1.1.8, equine serum) (Equus caballus, UniProt P81908)"
  GROUP LABEL: "no (0)"
- STRUCTURE SMILES STRING: "Fc1ccc2ccc3ocnc3c2c1"
  ASSAY TARGET: "BChE (EC 3.1.1.8, equine serum) (Equus caballus, UniProt P81908)"
  GROUP LABEL: "no (0)"
- STRUCTURE SMILES STRING: "O=[N+]([O-])c1ccc2ccc3ncoc3c2c1"
  ASSAY TARGET: "BChE (EC 3.1.1.8, equine serum) (Equus caballus, UniProt P81908)"
  GROUP LABEL: "no (0)"
- STRUCTURE SMILES STRING: "Cc1nc2c(ccc3sccc32)s1"
  ASSAY TARGET: "BChE (EC 3.1.1.8, equine serum) (Equus caballus, UniProt P81908)"
  GROUP LABEL: "no (0)"
- STRUCTURE SMILES STRING: "CN(C)c1ccc2ccc3ocnc3c2c1"
  ASSAY TARGET: "BChE (EC 3.1.1.8, equine serum) (Equus caballus, UniProt P81908)"
  GROUP LABEL: "no (0)"

Below: the item to evaluate.
Q: Is IC50 of "Cc1ccc2ccc3nc(C)oc3c2c1" strictly below 100 µM?
A: yes (1)
